Where do these numbers come from? They come from the supplement of paper PMC10899765.

- System: MCF10A
- protocol-summary: percent viability (nuclei count relative to siNT); higher = more viable cells
- condition-description: 20 nM; 72 h
reported-metric: percent viability (%)
Numbers only, in %.

In the examples that follow, each entry is paired with its recorded percent viability.
Record request: percent viability value, item GUCCUAGGAGGCUCCUCUG [hsa-miR-5571-3p]
66.3

Record request: percent viability value, item GUGUUCUCUGAUGGACAG [hsa-miR-4273]
49.3

Record request: percent viability value, item GACUAUAGAACUUUCCCCCUCA [hsa-miR-625-3p]
104

Record request: percent viability value, item AAACUCUACUUGUCCUUCUGAGU [hsa-miR-618]
46.5

Record request: percent viability value, item ACAGUAGUCUGCACAUUGGUUA [hsa-miR-199a-3p]
67.2

Record request: percent viability value, item AAUUCUGUAAAGGAAGAAGAGG [hsa-miR-4778-5p]
74.3

Record request: percent viability value, item GUGCUUCAUCGUAAUUAACCUUA [hsa-miR-3977]
49

Record request: percent viability value, item UGGACGGAGAACUGAUAAGGGU [hsa-miR-184]
43

For every item below, please supply its percent viability.
1. CGCAUCCCCUAGGGCAUUGGUGU [hsa-miR-324-5p]
2. AGGUGGGUAUGGAGGAGCCCU [hsa-miR-6769a-5p]
3. AACAUCACUGCAAGUCUUAACA [hsa-miR-499b-3p]

76.6
14.3
77

For every item below, please supply its percent viability.
1. CAGAGUGACAAGCUGGUUAAAG [hsa-miR-5586-3p]
2. AACAAUAUCCUGGUGCUGAGUG [hsa-miR-338-5p]
3. AUGUCCAUAUUAUGGGUUAGU [hsa-miR-3912-5p]
4. CGGCUCUGGGUCUGUGGGGA [hsa-miR-760]
5. UGCCCUCCUUUCUUCCCUC [hsa-miR-4290]
6. GAGCAGGCGAGGCUGGGCUGAA [hsa-miR-4690-5p]
7. UAUUCAUUUAUCCCCAGCCUACA [hsa-miR-664a-3p]

98.4
47.6
83.8
53
21.6
11.1
121

For every item below, please supply its percent viability.
1. AUCUGCCAGCUUCCACAGUGG [hsa-miR-4727-5p]
2. AAACAUUCGCGGUGCACUUCUU [hsa-miR-543]
3. UGCCCCAACAAGGAAGGACAAG [hsa-miR-5699-5p]

[42.4, 37.4, 43.1]

For every item below, please supply its percent viability.
1. UUCCUGGGCUUCUCCUCUGUAG [hsa-miR-6783-3p]
2. AAUCAUACAGGGACAUCCAGUU [hsa-miR-487a]

88.9
56

Record request: percent viability value, item CCUCAGAUCAGAGCCUUGC [hsa-miR-4330]
91.9
